- System: Adenosylhomocysteinase (Bos taurus)
- Experiment notes: Compound is evaluated for the inhibition of bovine liver S-adenosyl-homocysteine hydrolase at a concentration of 2.0 mM
Measured metric: inhibition

- Molecule: "CNc1ncnc2c1ncn2C(CO)CC(CO)CO (centres undefined)"
  Target or system: "Adenosylhomocysteinase (Bos taurus)"
  inhibition: "82%"
- Molecule: "Nc1nccc2c1ncn2C(CO)CC(CO)CO (centres undefined)"
  Target or system: "Adenosylhomocysteinase (Bos taurus)"
  inhibition: "94%"

I'm hoping you can list inhibition for every molecule here, please.
1. Nc1ncnc2c1ncn2C(CO)CC(CO)CO (centres undefined)
2. Nc1ncnc2c1nnn2C(CO)CC(CO)CO (centres undefined)

Response:
1. 98%
2. 94%
